System: HCT-15 colon
Test: NCI tumour cell line growth inhibition, 48 h
Listing: TGI of selected molecules

INSERT INTO results (molecule, measuredattribute, reportedmeasurement) VALUES
  ('CC(=O)[C@H]1CC[C@@H]2[C@]1(C)CC=C1[C@]23C=C[C@]2(C[C@@H](O)CC[C@]12C)C(C(=O)O)C3C(=O)O (some centres undefined)', 'TGI', '> 100 µM'),
  ('N#Cc1cc([N+](=O)[O-])ccc1NC(=O)C(=O)Nn1c(=S)[nH]c2ccccc2c1=O', 'TGI', '> 100 µM'),
  ('Cc1[nH]c(-c2ccccc2)c(O)c1C(=O)OC1CC(C)CCC1C(C)C (centres undefined)', 'TGI', '32.1 µM');

Briefly, TGI measured for O=C(Nc1cccc(Cl)c1)Nc1cc(C(F)(F)F)ccc1Cl : 11.5 µM

Reported TGI of Cc1c2cc[n+](C)cc2c(C)c2c1[nH]c1ccc(OC(C)(C)C)cc12 : > 100 µM

// field: TGI; key: c1ccc(C(OCCN2CC3CCC(C2)N3)c2ccccc2)cc1 ; value = > 100 µM

---

Tested on: HCT-116 colon
Assay: NCI tumour cell line growth inhibition, 48 h
Below: a set of entries, each annotated with reported TGI.

Worked examples, 3 compounds total:
INSERT INTO results (compound, reportedmeasurement) VALUES
  ('O=S1(=O)OCCOS(=O)(=O)C1C1c2ccccc2-c2ccccc21', '> 100 µM'),
  ('Cc1ccc(C2=C(c3ccccc3)C(O)(c3ccccc3)C(c3ccccc3)=C2c2ccc(C)cc2)cc1', '> 100 µM'),
  ('C=C1C(=O)OC2C=C(C)CC3C=C(CCC=C(C)CCC12)C(=O)O3 (centres undefined)', '85.6 µM');

# evaluate next
TGI reported for this compound O=c1[nH]c(C2CCCCC2)nc2ccc(Cl)cc12 : > 100 µM

---

Test system: HOP-92 NSCLC
Experiment: NCI tumour cell line growth inhibition, 48 h; in the data active = GI50 below about 0.43 µM; inactive = the rest
One label from this list, please: active, inactive

Worked cases, answers included:
INSERT INTO measurements (compound, testedtarget, answerlabel) VALUES
  ('OCC1OC(n2cnc3cc(Cl)c(Cl)cc32)C(O)C1O (centres undefined)', 'HOP-92 NSCLC', 'inactive'),
  ('COc1ccc(C2CC(=O)Nc3c2c(C)nn3-c2nc3ccccc3[nH]2)cc1OC (centres undefined)', 'HOP-92 NSCLC', 'inactive'),
  ('Cc1ccccc1N=C(c1ccccc1)C1C(=O)c2ccccc2C1=O', 'HOP-92 NSCLC', 'inactive'),
  ('O=C(COc1ccc(Cl)cc1Cl)NNc1ccc([N+](=O)[O-])cc1', 'HOP-92 NSCLC', 'inactive'),
  ('COc1ccc(COc2ccc(Cc3cnc(N)nc3N)cc2OC)cc1', 'HOP-92 NSCLC', 'inactive'),
  ('CCN1C(=O)N(CC)C2C1NN=c1s/c(=C\c3ccc(Br)cc3)c(=O)n12 (centres undefined)', 'HOP-92 NSCLC', 'active'),
  ('C[C@H]1O[C@@H](O[C@H]2[C@@H](O)C[C@H](O[C@H]3[C@@H](O)C[C@H](O[C@H]4CC[C@]5(C)C6CC[C@]7(C)[C@@H](C8=CC(=O)OC8)CC[C@]7(O)C6CC[C@@H]5C4)O[C@@H]3C)O[C@@H]2C)C[C@H](O)[C@@H]1O (some centres undefined)', 'HOP-92 NSCLC', 'active'),
  ('C#Cc1cccc(NC(=O)C2CCCCN2C(=O)CCl)c1 (centres undefined)', 'HOP-92 NSCLC', 'inactive');

Field: next compound
// query For CC1(/C=C/c2ccc(-c3ccccc3)cc2)CCn2cnc3ncnc(c32)N1O (centres undefined) , which call appears in the assay record?
// result inactive
